Hey, just so you know, these numbers are from paper PMC8068288.

- test.method.notes: Ocular biodistribution after SA-9 and SA-9 NPs eye drop
- Assay type: in vivo
- particulars: optic nerve, topical, 30 µL of 2% SA-9 solution; mouse, 1 h after single eye drop of 2% SA-9 solution; read-out: concentration of SA-9 in ON

compound.structure.string	unit.abbreviation	concentration at 1 h
Cl.[NH-]c1c[n+](C2CCSCC2)no1	ng/g	1300

* * *

- test.method.notes: Ocular biodistribution after SA-9 and SA-9 NPs eye drop
- Type: in vivo
- particulars: retina, topical, 30 µL of 2% SA-9 solution; mouse, 1 h after single eye drop of 2% SA-9 solution; read-out: concentration of SA-9 in retina
recorded.endpoint: concentration at 1 h

compound	recorded.endpoint	reported.result
Cl.[NH-]c1c[n+](C2CCSCC2)no1 [SA-9]	concentration at 1 h	8250 ng/g
